# tgt: T1, RADIL, Q96JH8
# T1 sequence (Q96JH8 971-1071, limits assumed, looked up): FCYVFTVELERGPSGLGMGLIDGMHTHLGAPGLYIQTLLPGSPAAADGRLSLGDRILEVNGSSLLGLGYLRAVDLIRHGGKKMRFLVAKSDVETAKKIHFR
# assaySummary: holdup assay
# Parameters: key: below the threshold = too weak to quantify, mostly under pKd 3.1 to 4
# experimentalContext: plain residues with an end cap or a label only (N-terminal biotin on a linker: ado-ado)
metricName: pKd

binder="KSRVAFFEEL [NF2, P35240;P35240-1]" quantitativereadout=4.44
binder="QKAPTKEFYA [SDC2, P34741]" quantitativereadout=3.51
binder="KKMLQRRTLL [OR8G1, Q15617]" quantitativereadout=3.66
binder="MQHQRTHTRV [ZSCAN30, Q86W11]" quantitativereadout=4.14
binder="SFISKKEWYV [NECTIN1, Q15223]" quantitativereadout=4.94
binder="DGVNEKVSCV [HTR2A, P28223]" quantitativereadout=4.53
binder="MHIQEKGFHV [EPHA6, Q9UF33]" quantitativereadout=3.98
binder="VKRNSKETVV [MARCHF3, Q86UD3]" quantitativereadout=4.04
binder="IDESKKEWLI [CNTNAP2, Q9UHC6]" quantitativereadout=3.76
binder="TGLWKHETTV [ADGRA3, Q8IWK6]" quantitativereadout=4.43
binder="EDGESWEYQI [TRPV6, Q9H1D0]" quantitativereadout=3.69
binder="ARSAAASNYV [CLDN4, O14493]" quantitativereadout=4.5
binder="DFLSTFHIRI [CIB2, O75838]" quantitativereadout=4.19
binder="VLYPREGTEV [FOXI1, Q12951]" quantitativereadout=3.74
binder="QLSFNTDTLC [ABCA2, Q9BZC7]" quantitativereadout=3.49
binder="QSYPSKHDYV [CLDN18, P56856]" quantitativereadout=4.35
